assay: self-splicing fitness, log relative to wild type (ln ratio); higher = more splicing; Tetrahymena group I intron in knt gene, E. coli kanamycin selection, DiMSum; sequences stand for … in CUCUCU…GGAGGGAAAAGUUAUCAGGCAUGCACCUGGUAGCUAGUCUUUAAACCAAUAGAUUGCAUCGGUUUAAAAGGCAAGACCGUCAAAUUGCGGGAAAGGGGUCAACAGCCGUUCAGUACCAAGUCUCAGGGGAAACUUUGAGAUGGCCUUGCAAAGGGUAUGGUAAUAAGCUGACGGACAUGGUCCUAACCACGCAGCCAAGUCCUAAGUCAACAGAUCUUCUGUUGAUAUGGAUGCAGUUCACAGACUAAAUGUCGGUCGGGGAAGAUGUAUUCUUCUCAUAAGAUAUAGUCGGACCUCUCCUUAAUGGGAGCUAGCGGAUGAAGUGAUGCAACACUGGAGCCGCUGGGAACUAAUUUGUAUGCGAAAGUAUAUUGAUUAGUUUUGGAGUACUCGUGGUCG; conditions: 37 °C;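 note: selection with 25 µg/mL kanamycin versus none on LB agar overnight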
self-splicing fitness (ln) for assorted sequences

> print(dat)
         chain.sequence               readout.label  result
1  CCGCAGCAAUAUUACGCGUG  self-splicing fitness (ln)   -2.38

What does the record list as self-splicing fitness (ln) for UUCGAGCAAUAUUACGAGAA ? -0.969

Can you share its self-splicing fitness (ln)? I mean this sequence: AAACAGCAAUAUUACGUCUA -0.311

Fill blank: measured self-splicing fitness (ln) of the sequence CGUCAGCAAUAUUACGUGAU is ____. -1.18

Report self-splicing fitness (ln) for UACUAGCAAUAUUACGUCUU please. -1.27

###

assay: self-splicing fitness, log relative to wild type (ln ratio); higher = more splicing; Tetrahymena group I intron in knt gene, E. coli kanamycin selection, DiMSum; sequences stand for … in CUCUCU…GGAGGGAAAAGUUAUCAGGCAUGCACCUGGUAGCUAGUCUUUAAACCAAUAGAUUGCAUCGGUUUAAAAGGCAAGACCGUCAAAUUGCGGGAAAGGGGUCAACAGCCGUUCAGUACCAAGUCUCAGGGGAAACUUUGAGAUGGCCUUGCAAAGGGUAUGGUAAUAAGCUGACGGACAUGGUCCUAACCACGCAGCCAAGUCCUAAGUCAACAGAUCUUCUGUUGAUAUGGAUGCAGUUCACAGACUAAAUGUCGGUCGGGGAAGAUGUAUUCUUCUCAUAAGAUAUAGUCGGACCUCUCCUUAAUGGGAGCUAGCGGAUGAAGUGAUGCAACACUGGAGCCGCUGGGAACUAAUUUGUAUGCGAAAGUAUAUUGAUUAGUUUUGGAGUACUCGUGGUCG; conditions: 37 °C
READOUT_LABEL: self-splicing fitness (ln)
Form rule: numeric answer, no unit written next to it.

Would you please look over these solved cases?
> print(dat)
         chain.sequence  measured.number
1  UAGGAGCAAUAUUACGCCGA           -0.577
2  ACACAGCAAUAUUACGAGGA            -1.66
3  AUUGAGCAAUAUUACGUCCG            -2.91

Look up self-splicing fitness (ln) for this sequence: GGACAGCAAUAUUACGACAC 0.167

Suppose we examine the sequence CCAGAGCAAUAUUACGUUAC ; what self-splicing fitness (ln) value has been reported? -1.7

I am curious: what self-splicing fitness (ln) value has been reported for UCUUAGCAAUAUUACGCAAG ? -2.48

Record request: self-splicing fitness (ln) value, item GACAAGCAAUAUUACGCAGG -1.71

Any idea what its self-splicing fitness (ln) is? The sequence is GGCUAGCAAUAUUACGUGCU -1.27

I have this sequence here, CAACAGCAAUAUUACGAGAG , and I need its recorded self-splicing fitness (ln). -1.91

Which self-splicing fitness (ln) is reported for this sequence? ACGCAGCAAUAUUACGGUCU 0.0141
